tested on: Total ATXN3 (tATXN3) protein; assay: Endogenous Total ATXN3 (tATXN3) Protein Assay (MSD immunoassay of cell lysates); format: cell-based; details: average IC50, total ATXN3 protein in cell lysate after 48 h with compound (Table 1)
Listed compounds paired with reported IC50
measured.quantity: IC50

compound=Cc1c([C@H]2CC=CC[C@@H]2N)sc2c(NCc3ccsc3)cc(Cl)nc12 measured_value="30 to 300 nM"
compound="N[C@@H]1CCCO[C@H]1c1sc2c(NCc3cccs3)cc(Cl)nc2c1C#CCCO.N[C@H]1CCCO[C@@H]1c1sc2c(NCc3cccs3)cc(Cl)nc2c1C#CCCO (mixture of isomers)" measured_value="≤ 30 nM"
compound="N[C@@H]1CC=CC[C@H]1c1sc2c(NCc3cccs3)nc(Cl)nc2c1Cl.N[C@H]1CC=CC[C@@H]1c1sc2c(NCc3cccs3)nc(Cl)nc2c1Cl (mixture of isomers) [Compound 240]" measured_value="≤ 30 nM"
compound=N[C@@H]1CCCO[C@@H]1c1sc2c(NCc3cccs3)cc(Cl)nc2c1Cl measured_value="> 1000 nM"
compound=CC#Cc1c([C@H]2CCCC[C@@H]2N)n(C(F)F)c2c(NCc3ccco3)nc(Cl)nc12 measured_value="30 to 300 nM"
compound=N[C@H]1CCCCC[C@H]1c1sc2c(NCc3cccs3)cc(Cl)nc2c1Cl measured_value="> 1000 nM"
compound=Cc1c([C@H]2CCCC[C@@H]2N)sc2c(NCc3ccco3)nc(Cl)nc12 measured_value="≤ 30 nM"
compound=N[C@@H]1CCCO[C@H]1c1sc2c(NCc3cccs3)cc(Cl)nc2c1Cl measured_value="> 1000 nM"
compound=N[C@H]1CCCC[C@H]1c1sc2c(NCc3cccs3)cc(Cl)nc2c1Cl measured_value="30 to 300 nM"
compound=COC(=O)CNc1cc(Cl)nc2c(Br)c([C@H]3CC=CC[C@@H]3N)sc12 measured_value="30 to 300 nM"
compound=C/C=C/CNc1cc(Cl)nc2c(C)c([C@H]3CC=CC[C@@H]3N)sc12 measured_value="30 to 300 nM"
compound=N[C@@H]1CCC[C@H]1c1sc2c(NCc3cccs3)cc(Cl)nc2c1-c1ccccc1 measured_value="> 1000 nM"
compound=N[C@@H]1CC=CC[C@H]1c1sc2c(NCc3ccncc3F)cc(Cl)nc2c1Cl measured_value="30 to 300 nM"
compound=N[C@H]1CC=CC[C@@H]1c1sc2c(NCc3cccs3)cc(Cl)nc2c1C#CCCCCCO measured_value="30 to 300 nM"
compound=N[C@H]1CCCO[C@@H]1c1c(Cl)c2nc(Cl)cc(NCc3ccco3)c2n1C(F)F measured_value="30 to 300 nM"
